Assay target: PIK3CD (Human)
Readout type: IC50 (µM)

- CSCC[C@H](N)C(=O)N1CCN(c2nc(N3CCOCC3)nc(-n3c(C(F)F)nc4ccccc43)n2)CC1: 2.95
- CC(C)C[C@H](N)CC(=O)N1CCN(c2nc(-c3cccc(O)c3)nc(N3CCOCC3)n2)CC1: 9.1

[A] N[C@@H](Cc1ccccc1)C(=O)N1CCN(c2nc(-c3cccc(O)c3)nc(N3CCOCC3)n2)CC1
[B] N[C@H](CC(=O)N1CCN(c2nc(-c3cccc(O)c3)nc(N3CCOCC3)n2)CC1)Cc1ccccc1
[C] C[C@H](N)CC(=O)N1CCN(c2nc(N3CCOCC3)nc(-n3c(C(F)F)nc4ccccc43)n2)CC1
[D] O=C(C1CCNCC1)N1CCN(c2nc(-c3cccc(O)c3)nc(N3CCOCC3)n2)CC1
Query string: Falling order of IC50, please. Rank them, then answer with their labels in that order.
Result string: B, A, D, C

* * *

Assay target: PIK3CG (human) (UniProt P48736)
Sequence (P48736 whole entry, looked up): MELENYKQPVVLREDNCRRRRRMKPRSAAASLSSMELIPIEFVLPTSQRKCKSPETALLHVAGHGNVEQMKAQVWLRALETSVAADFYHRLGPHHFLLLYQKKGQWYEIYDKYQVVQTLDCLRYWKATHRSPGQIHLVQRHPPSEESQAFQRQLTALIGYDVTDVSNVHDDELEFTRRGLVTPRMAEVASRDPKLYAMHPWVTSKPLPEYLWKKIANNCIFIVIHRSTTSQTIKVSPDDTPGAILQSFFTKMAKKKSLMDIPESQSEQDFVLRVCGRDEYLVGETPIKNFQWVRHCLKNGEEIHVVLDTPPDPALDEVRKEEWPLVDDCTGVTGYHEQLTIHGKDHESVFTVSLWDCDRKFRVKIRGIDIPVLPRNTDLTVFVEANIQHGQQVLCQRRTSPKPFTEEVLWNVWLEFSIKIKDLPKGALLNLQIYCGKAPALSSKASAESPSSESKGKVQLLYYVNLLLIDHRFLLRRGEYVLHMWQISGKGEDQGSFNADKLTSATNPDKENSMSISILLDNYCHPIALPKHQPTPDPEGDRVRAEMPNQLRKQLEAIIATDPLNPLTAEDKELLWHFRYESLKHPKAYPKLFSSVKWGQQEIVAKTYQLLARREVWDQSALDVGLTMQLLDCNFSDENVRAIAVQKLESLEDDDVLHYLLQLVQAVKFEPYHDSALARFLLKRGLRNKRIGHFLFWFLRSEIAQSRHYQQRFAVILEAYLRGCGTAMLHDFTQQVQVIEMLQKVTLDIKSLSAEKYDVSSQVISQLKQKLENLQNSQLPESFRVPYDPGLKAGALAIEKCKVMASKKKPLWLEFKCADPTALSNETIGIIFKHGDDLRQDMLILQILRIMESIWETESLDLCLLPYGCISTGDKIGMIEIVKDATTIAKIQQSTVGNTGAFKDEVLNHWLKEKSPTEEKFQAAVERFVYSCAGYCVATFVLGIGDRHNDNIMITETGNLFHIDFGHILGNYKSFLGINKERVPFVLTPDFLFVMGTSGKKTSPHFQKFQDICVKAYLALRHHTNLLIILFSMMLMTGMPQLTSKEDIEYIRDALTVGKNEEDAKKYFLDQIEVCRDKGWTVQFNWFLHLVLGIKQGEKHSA
Readout type: IC50 (µM)

[A] N[C@H](Cc1ccccc1)C(=O)N1CCN(c2nc(N3CCOCC3)nc(-n3c(C(F)F)nc4ccccc43)n2)CC1
[B] C[C@H](N)CC(=O)N1CCN(c2nc(N3CCOCC3)nc(-n3c(C(F)F)nc4ccccc43)n2)CC1
Query string: // compare measured IC50 between A and B ; output the lower one Write down the label attached to your selection.
Result string: B
(B: 7.5 µM, A: 58 µM)

* * *

Assay target: PIK3CB (Human)
Readout type: IC50 (nM)

Consider the reported IC50 for these compounds:
- C[C@@H](N)CC(=O)N1CCN(c2nc(-c3cccc(O)c3)nc(N3CCOCC3)n2)CC1: 1700
- N[C@@H](Cc1ccccc1)C(=O)N1CCN(c2nc(-c3cccc(O)c3)nc(N3CCOCC3)n2)CC1: 190

[I] CSCC[C@H](N)C(=O)N1CCN(c2nc(N3CCOCC3)nc(-n3c(C(F)F)nc4ccccc43)n2)CC1
[II] CC(C)C[C@H](N)CC(=O)N1CCN(c2nc(-c3cccc(O)c3)nc(N3CCOCC3)n2)CC1
Query string: Determine, for I and II , which has the greater value of IC50. // return label of chosen record
Result string: II
(II: 19000 nM, I: 483 nM)

* * *

Measured IC50 (PIK3CG (human) (UniProt P48736))

Below are worked cases with known answers.
- N[C@@H](Cc1ccccc1)C(=O)N1CCN(c2nc(-c3cccc(O)c3)nc(N3CCOCC3)n2)CC1: > 100 µM
- CCC(C)[C@H](N)C(=O)N1CCN(c2nc(N3CCOCC3)nc(-n3c(C(F)F)nc4ccccc43)n2)CC1 (some centres undefined): > 10 µM
- NCCCC(=O)N1CCN(c2nc(N3CCOCC3)nc(-n3c(C(F)F)nc4ccccc43)n2)CC1: 7.5 µM

Query string: Need IC50 of CC(C)C[C@H](N)CC(=O)N1CCN(c2nc(-c3cccc(O)c3)nc(N3CCOCC3)n2)CC1 , thanks.
Result string: > 100 µM
